For each of the compounds below, state its log10 of TGI.
Tested on: SK-MEL-5 melanoma
Experiment: NCI tumour cell line growth inhibition, 48 h
Scale: log10; quantity: TGI; unit before log: µM

List reported log10 of TGI for each of these compounds:
1. CN(C)c1ccccc1CC(c1c[nH]c2ccccc12)c1c[nH]c2ccccc12
2. O=C1C=C(c2c(-c3ccccc3)[nH]c3ccccc23)C(=O)N1c1ccccc1
3. O=C1Nc2ccccc2C1(c1ccc(O)c(F)c1)c1ccc(O)c(F)c1
4. COc1cc(C2c3cc4c(cc3[C@H](NC(=O)c3cccs3)C3COC(=O)[C@H]23)OCO4)cc(OC)c1OC (some centres undefined)

// result
1.46
1.32
1.48
-0.15

###

Test system: SNB-19 CNS
Assay: NCI tumour cell line growth inhibition, 48 h
Assay Readout: TGI

Look over these answered cases.
>  <Compound>
CCCCCCc1cc2cc(C(=O)Nc3ccccc3F)c(=N)oc2cc1O

>  <Target Or Test System>
SNB-19 CNS

>  <TGI>
56.2 µM

$$$$
>  <Compound>
O=C(O)CN(CC(=O)O)Cc1cc2c(cc1O)Oc1cc(O)c(CN(CC(=O)O)CC(=O)O)cc1C21OC(=O)c2ccccc21

>  <Target Or Test System>
SNB-19 CNS

>  <TGI>
> 100 µM

$$$$
>  <Compound>
C/C(=N\Nc1nc2ccccc2[nH]1)c1ccncn1

>  <Target Or Test System>
SNB-19 CNS

>  <TGI>
> 100 µM

$$$$
>  <Compound>
COc1ccc(/C=C2\N=C(c3ccccc3)N(c3cc(C(F)(F)F)ccc3Cl)C2=O)cc1OC

>  <Target Or Test System>
SNB-19 CNS

>  <TGI>
> 100 µM

$$$$

List reported TGI for each of these compounds:
1. O=C1ON(Cc2ccccc2)C(c2ccccc2)N1c1ccccc1 (stereo unspecified)
2. O=C(CCc1nnc2s/c(=C\c3ccc4c(c3)OCO4)c(=O)n12)Nc1cc(Cl)ccc1Cl
3. O=c1c2cc(Br)ccc2[nH]c(=S)n1-c1ccc(Br)cc1

// result
> 100 µM
> 100 µM
> 100 µM

List reported TGI for each of these compounds:
1. CC1=Nc2nc3ccccc3n2C(C)(C)C1
2. O=C1Nc2cc(Cl)ccc2Oc2cc(Oc3ccccc3)ccc21
3. Nc1ccn([C@H]2CO[C@@H](CO)O2)c(=O)n1
4. CC(=O)Oc1ccc2ccc(=O)oc2c1OC(C)=O
5. OC(c1ccc(F)cc1)C(F)(F)c1nc(-c2ccccc2)no1 (stereo unspecified)
6. Cc1c(C)c(S(=O)(=O)N(CCCCCN)OCCCN)c(C)c2c1OC(C)(C)CC2

// result
["> 100 µM", "49.2 µM", "> 100 µM", "> 100 µM", "64.2 µM", "24.8 µM"]

List reported TGI for each of these compounds:
1. COCC[N+](CCNC(=O)c1cccc2c(N)c3cccc(C)c3nc12)(CCOC)Cc1ccc([N+](=O)[O-])cc1
2. COc1cc(C(=O)NC2CCN(C)CC2)ccc1Nc1ncc2c(n1)N(C1CCCC1)CC(F)(F)C(=O)N2C
3. CC(=O)c1c2c(cc3c1CC1(Cc4cc5c(cc4C1=O)CCC5)C3)CCC2 (stereo unspecified)
4. Cc1nc2c(=O)[nH]c3ccccc3c2o1

// result
["> 100 µM", "16.8 µM", "> 100 µM", "> 100 µM"]

List reported TGI for each of these compounds:
1. C/C(O)=C(/C=N\C(=S)Nc1ccc(Cl)c(Cl)c1)C(=O)Nc1ccccc1C
2. CN(C)c1ccccc1CC(c1c[nH]c2ccccc12)c1c[nH]c2ccccc12
3. COC(=O)NNc1c([N+](=O)[O-])cnn(-c2ccccc2)c1=O
4. COc1c(OC(C)=O)c(OC(C)=O)cc2c1-c1ccc(OC)c(=O)cc1C(NC(C)=O)CC2 (stereo unspecified)

// result
1. 84.2 µM
2. 27.8 µM
3. 23.2 µM
4. > 95.5 µM

###

Test system: SF-268 CNS
Test: NCI tumour cell line growth inhibition, 48 h
Assay Readout: TGI

Look over these answered cases.
>  <Molecule>
CC1(C)CC(=O)C(C(c2cccc(O)c2O)C2C(=O)CC(C)(C)CC2=O)C(=O)C1

>  <Meas Value>
> 100 µM

$$$$
>  <Molecule>
O=C1CSC(=S)N1c1ccc(F)cc1F

>  <Meas Value>
> 100 µM

$$$$
>  <Molecule>
COC(=O)C1=C(C(=O)OC)SC(=C2c3ccsc3-c3sccc32)S1

>  <Meas Value>
57.3 µM

$$$$

List reported TGI for each of these molecules:
1. COc1cc(C2C(Cl)C(=O)N2NC(=O)c2ccc(NC(C)=O)cc2)cc(Br)c1O (stereo unspecified)
2. COCC1C(=O)c2cc3c(cc2C12C=CC1(C=C2)OCCO1)OCO3 (stereo unspecified)
3. COc1ccc(CN2C(=O)C(Cc3cc(OC)c(OC)c(C)c3OC)N(C(=O)OC(C)C)C(=O)/C2=C/c2cc(OC)c(OC)c(C)c2OC)cc1 (stereo unspecified)
4. CC(C)(C)[Si](C)(C)OCC1OC(n2cc(F)c(=O)[nH]c2=O)CC1O[Si](C)(C)C(C)(C)C (stereo unspecified)
5. CN(C)CCCNC(=O)c1cc(NC(=O)CCNC(=O)c2ccc3c(c2)C(=O)c2ccccc2C3=O)cn1C
6. CC(=O)Nc1ccc(C2=N/C(=C\c3ccc(Cl)c(Cl)c3)C(=O)O2)cc1
7. O=c1cc2n(c(=O)[nH]1)C1OC(C(O)C1O)[C@H]2CCO (stereo partly specified)
8. Cc1[nH]c2ncn3ncnc3c2c1Cc1ccccc1

// result
1: > 100 µM; 2: 16 µM; 3: > 100 µM; 4: 29.8 µM; 5: > 100 µM; 6: > 100 µM; 7: > 100 µM; 8: > 100 µM

List reported TGI for each of these molecules:
1. Cn1c(=O)nc2n(-c3ccc(F)cc3)c3ccccc3nc-2c1=O
2. CC(C)=CCC/C(C)=C/CC/C(C)=C/CC/C=C(\C)CC/C=C(\C)CCC1SC1(C)C (stereo unspecified)
3. CC(C)(C)C(=O)OCOP(=O)(OCOC(=O)C(C)(C)C)C1CCCN(OC(=O)c2ccccc2)C1=O (stereo unspecified)

// result
> 100 µM
> 100 µM
61.7 µM

###

Test system: MDA-MB-231 breast
Experiment: NCI tumour cell line growth inhibition, 48 h
Assay Readout: TGI (µM)
One number for each entry, in µM.

Look over these answered cases.
>  <Compound>
C=C1C(=O)O[C@H]2[C@H]1CC/C(COC(=O)/C=C\C(=O)NCc1ccc(Cn3c(=O)sn(-c4ccc(OC)cc4)c3=O)cc1)=C\CC[C@@]1(C)O[C@@H]21

>  <Readout Units>
µM

>  <TGI>
1.7

$$$$
>  <Compound>
C[N+](C)(C)CCC(=O)N1C/C(=C\c2ccccc2)C(=O)/C(=C/c2ccccc2)C1

>  <Readout Units>
µM

>  <TGI>
9.82

$$$$
>  <Compound>
C#CC[C@@H]1C[C@]2(C)[C@H]3CC[C@@H]4[C@H]5[C@H](C(=C)C)CC[C@]5(C(=O)O)CC[C@@]4(C)[C@]3(C)CC[C@H]2C(C)(C)[C@H]1O

>  <Readout Units>
µM

>  <TGI>
6.11

$$$$
>  <Compound>
COCC[N+](CCNC(=O)c1cccc2c(N)c3cccc(C)c3nc12)(CCOC)Cc1ccc([N+](=O)[O-])cc1

>  <Readout Units>
µM

>  <TGI>
58.8

$$$$
>  <Compound>
CCOC(=O)C1=C(N)Oc2c(sc3c(C)cccc23)C1c1ccc(Cl)cc1 (stereo unspecified)

>  <Readout Units>
µM

>  <TGI>
17.4

$$$$
>  <Compound>
COc1ccc(-c2nc(N(C)C)c3ccccc3n2)cc1

>  <Readout Units>
µM

>  <TGI>
96.5

$$$$
>  <Compound>
CN(C)CCSC(=Nc1ccccc1)N1C=COC=C1

>  <Readout Units>
µM

>  <TGI>
41.1

$$$$
>  <Compound>
COc1ccc(-c2cn(-c3ccc(Cl)cc3)c(=S)[nH]2)cc1OC

>  <Readout Units>
µM

>  <TGI>
87

$$$$
>  <Compound>
C=C1C(=O)O[C@H]2[C@H]1CC/C(C=Nc1ccc(C(F)(F)F)cc1N)=C\CC[C@@]1(C)O[C@@H]21

>  <Readout Units>
µM

>  <TGI>
24.3

$$$$
>  <Compound>
O=C(/C=C/c1ccccn1)c1ccccc1O

>  <Readout Units>
µM

>  <TGI>
7.5

$$$$

List reported TGI for each of these compounds:
1. C[As](C)Sc1ccnc(S[As](C)C)n1
2. CC(=O)c1ccc(N2CCN(c3c(O)c4c(c(O)c3Cl)C(=O)C=CC4=O)CC2)cc1
3. CC(=O)O[C@H]1C(=O)[C@@]2(C)[C@H]([C@H](OC(=O)c3ccccc3)[C@]3(O)C[C@H](OC(=O)[C@H](O)[C@@H](NC(=O)c4ccccc4)C4CCCCC4)C(C)=C1C3(C)C)[C@]1(OC(C)=O)CO[C@@H]1C[C@@H]2O

// result
[15.8, 5.5, 28.6]

Attribution: PubChem BioAssay (NCI)
